Target: Pdr3 (UniProt P33200)
Sequence: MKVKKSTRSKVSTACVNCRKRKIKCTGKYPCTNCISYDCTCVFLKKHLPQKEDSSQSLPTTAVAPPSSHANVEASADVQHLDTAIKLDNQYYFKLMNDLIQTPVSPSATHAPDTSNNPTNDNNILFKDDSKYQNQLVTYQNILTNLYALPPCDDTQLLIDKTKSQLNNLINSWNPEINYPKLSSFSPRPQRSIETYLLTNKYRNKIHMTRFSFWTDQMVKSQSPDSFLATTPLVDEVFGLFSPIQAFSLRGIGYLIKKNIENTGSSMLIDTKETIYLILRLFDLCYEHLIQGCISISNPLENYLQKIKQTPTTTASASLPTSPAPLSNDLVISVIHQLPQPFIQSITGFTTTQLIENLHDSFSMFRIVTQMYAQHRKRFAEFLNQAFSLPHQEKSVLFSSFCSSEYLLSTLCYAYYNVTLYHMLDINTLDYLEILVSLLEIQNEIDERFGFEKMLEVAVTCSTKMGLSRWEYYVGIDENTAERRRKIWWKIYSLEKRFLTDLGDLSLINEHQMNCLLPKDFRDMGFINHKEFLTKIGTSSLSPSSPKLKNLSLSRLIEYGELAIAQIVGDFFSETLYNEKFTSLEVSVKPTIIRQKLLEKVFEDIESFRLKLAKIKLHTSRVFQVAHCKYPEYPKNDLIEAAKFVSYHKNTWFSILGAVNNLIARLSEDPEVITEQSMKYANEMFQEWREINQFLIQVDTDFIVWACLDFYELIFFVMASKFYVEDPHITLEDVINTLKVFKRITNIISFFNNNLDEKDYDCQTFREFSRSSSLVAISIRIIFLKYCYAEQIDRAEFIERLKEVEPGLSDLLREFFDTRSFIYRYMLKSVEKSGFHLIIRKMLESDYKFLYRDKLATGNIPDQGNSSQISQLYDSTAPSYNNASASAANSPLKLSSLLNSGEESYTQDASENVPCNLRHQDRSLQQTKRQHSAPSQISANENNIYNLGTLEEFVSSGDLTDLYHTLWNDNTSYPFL
Test: PBM E-score (8-mer binding enrichment) (E-score (-0.5 to 0.5)); higher = stronger / more preferred TF binding
Details: protein concentration: 200 nM; construct: GST-full length
Whole data set: some 33,000 sequences, median “E-score (-0.5 to 0.5)” near -0.035, cut for the highest 2% near 0.35. What follows is part of a selection rich in the highest values, with near analogues and random picks from the rest.
Quantity Name: PBM E-score

| Residue String | Result Value |
| --- | --- |
| GGCCGGCA | 0.367 |
| TGCCGGCA | 0.385 |
| GCCGTGGA | 0.258 |
| TCCGTCGA | 0.39 |
| GGCGGTTA | 0.0539 |
| GGCCGGCC | 0.326 |
| GTCTACCA | -0.252 |
| CCCGTGGC | 0.233 |
| ACCCGTAT | 0.0405 |
